Numbers sourced from patent US20230192839A1.

- Tested on: human epidermal growth factor receptor (EGFR)
- assayExplanation: Biacore SPR binding kinetics of anti-EGFR scFv-Fc clones with or without 10 µM MTX
- setupConditions: 0 µM MTX, 37° C., pH 7.4, scFv-Fc
quantityMeasured: koff, kinetics toward antigen with 0 µM MTX (s⁻¹)

>  <molecule>
P01_F02: anti-EGFR clone with conditional affinity; VH SEQ ID NO: 119, VL SEQ ID NO: 120; also as scFv in CAR (antibody, V domains shown, Synthetic Antibody, also as scFv in CAR) VH: QVQLVESGGGLVQAGGSLRLSCAASRRSSRSWAMHWVRQAPGKGLEWVAVISYDGRLKYYADSVKGRFTISRDNAEYLVYLQMNSLRAEDTAVYYCAADVESALAYGEPYHHMDVWGQGTLVTVSS VL: QSVLTQPPSASGTPGQRVTISCSGSSSNIGRNYVYWYQQLPGTAPKLLIYRTSQRPSGVPDRFSGSKSGTSASLAISGLRSEDEADYYCATWDDSLSGWVFGTGTKLTVL

>  <observed>
0.011

$$$$
